targetSystem: Recombinant purified human JAK3 (Homo sapiens (Human), UniProt P52333)
Sequence (P52333 whole entry): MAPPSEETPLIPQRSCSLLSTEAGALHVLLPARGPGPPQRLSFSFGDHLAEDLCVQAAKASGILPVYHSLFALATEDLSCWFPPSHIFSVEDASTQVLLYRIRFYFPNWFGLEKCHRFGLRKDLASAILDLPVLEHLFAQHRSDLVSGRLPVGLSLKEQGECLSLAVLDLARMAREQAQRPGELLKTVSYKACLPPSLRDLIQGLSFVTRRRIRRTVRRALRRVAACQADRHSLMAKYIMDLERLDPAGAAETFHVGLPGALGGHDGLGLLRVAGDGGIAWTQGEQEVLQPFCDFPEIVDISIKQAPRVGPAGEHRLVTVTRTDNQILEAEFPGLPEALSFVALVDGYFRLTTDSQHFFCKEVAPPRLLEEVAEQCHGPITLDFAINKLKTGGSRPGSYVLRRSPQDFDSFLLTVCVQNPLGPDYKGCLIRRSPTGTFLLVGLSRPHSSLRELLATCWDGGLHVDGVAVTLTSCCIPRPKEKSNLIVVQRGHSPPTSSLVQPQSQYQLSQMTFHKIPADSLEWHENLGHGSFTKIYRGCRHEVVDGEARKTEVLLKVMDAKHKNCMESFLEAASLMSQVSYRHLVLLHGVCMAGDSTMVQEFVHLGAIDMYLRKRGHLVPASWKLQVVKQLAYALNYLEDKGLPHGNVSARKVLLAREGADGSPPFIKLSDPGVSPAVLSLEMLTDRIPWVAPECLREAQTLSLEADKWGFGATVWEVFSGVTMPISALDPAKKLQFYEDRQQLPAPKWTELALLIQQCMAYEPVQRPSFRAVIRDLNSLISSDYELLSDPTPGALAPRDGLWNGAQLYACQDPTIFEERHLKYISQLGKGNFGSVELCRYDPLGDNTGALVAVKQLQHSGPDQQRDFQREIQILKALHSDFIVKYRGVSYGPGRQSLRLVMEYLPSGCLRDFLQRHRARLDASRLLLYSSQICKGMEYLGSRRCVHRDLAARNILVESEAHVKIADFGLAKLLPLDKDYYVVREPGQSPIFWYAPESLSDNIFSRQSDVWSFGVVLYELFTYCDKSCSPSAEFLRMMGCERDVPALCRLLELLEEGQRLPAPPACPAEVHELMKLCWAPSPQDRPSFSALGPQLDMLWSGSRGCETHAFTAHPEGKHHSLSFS
methodNotes: JAK3 kinase inhibitory activity, ADP-Glo kinase assay kit (Promega V9441)
conditionsUsed: ATP 5 uM, 4 ng JAK3 per reaction, 1 hour at 30° C., chemiluminescence
valueKind: IC50 (nM)

Here's what some known entries look like.
{"molecularString": "C=CC(=O)Nc1ccc(F)c(Oc2nc(Nc3cnoc3)nn3cccc23)c1", "unitSpec": "nM", "IC50": 32}
{"molecularString": "C=CC(=O)Nc1cc(Oc2nc(Nc3cnn(CC)c3)nn3cccc23)ccc1C", "unitSpec": "nM", "IC50": 13}
{"molecularString": "CCn1cc(Nc2nc(Oc3cc(NC(=O)/C=C/CCl)ccc3F)c3cccn3n2)cn1", "unitSpec": "nM", "IC50": 99.5}
{"molecularString": "C=CC(=O)Nc1ccc(F)c(Oc2nc(Nc3ccc(C(=O)N4CCOCC4)cc3)nn3cccc23)c1", "unitSpec": "nM", "IC50": 2}
{"molecularString": "C=CC(=O)Nc1ccc(F)c(Oc2nc(Nc3ccc(N4CCN(C)CC4)cc3)nn3cccc23)c1", "unitSpec": "nM", "IC50": 1.4}

[I] C=CC(=O)Nc1cccc(Oc2nc(Nc3ccn(C)n3)nn3cccc23)c1
[II] C=CC(=O)Nc1cccc(Oc2nc(Nc3ccc(OC)cc3)nn3cccc23)c1
[III] O=C(CCl)Nc1ccc(F)c(Oc2nc(Nc3cnn(C4CCOCC4)c3)nn3cccc23)c1
Ordering criterion: IC50; begin with the maximum. A ranking is expressed here by listing the labels in the requested order.
I, II, III
(I: 57.7 nM, II: 5.9 nM, III: 0.5 nM)

* * *

targetSystem: Recombinant purified human JAK3 (Homo sapiens (Human))
methodNotes: JAK3 kinase inhibitory activity, ADP-Glo kinase assay kit (Promega V9441)
conditionsUsed: ATP 5 uM, 4 ng JAK3 per reaction, 1 hour at 30° C., chemiluminescence
pIC50: −log10 of the molar value.
valueKind: pIC50

{"molecularString": "CCn1cc(Nc2nc(Oc3cc(NC(=O)CCl)ccc3F)c3cccn3n2)cn1", "valueKind": "pIC50", "dataValue": 9.15}
{"molecularString": "C=CC(=O)Nc1ccc(F)c(Oc2nc(Nc3cnn(CC(F)F)c3)nn3cccc23)c1", "valueKind": "pIC50", "dataValue": 9.05}
{"molecularString": "C=CC(=O)Nc1cccc(Oc2nc(Nc3cc(C)ns3)nn3cccc23)c1", "valueKind": "pIC50", "dataValue": 9.22}
{"molecularString": "C=CC(=O)Nc1cccc(Oc2nc(Nc3cnn(CC(F)F)c3)nn3cccc23)c1", "valueKind": "pIC50", "dataValue": 9.15}

* * *

targetSystem: Recombinant purified human JAK3 (Homo sapiens (Human), UniProt P52333)
methodNotes: JAK3 kinase inhibitory activity, ADP-Glo kinase assay kit (Promega V9441)
conditionsUsed: ATP 5 uM, 4 ng JAK3 per reaction, 1 hour at 30° C., chemiluminescence
valueKind: IC50 (nM)

Here's what some known entries look like.
{"molecule": "C=CC(=O)Nc1cc(Oc2nc(Nc3cnn(CC(F)F)c3)nn3cccc23)ccc1C [Example 48]", "targetSystem": "Recombinant purified human JAK3 (Homo sapiens (Human), UniProt P52333)", "valueKind": "IC50", "unitSpec": "nM", "dataValue": 13.8}
{"molecule": "C=CC(=O)Nc1cccc(Oc2nc(Nc3ccc(N4CCN(C)CC4)cc3)nn3cccc23)c1 [Example 2]", "targetSystem": "Recombinant purified human JAK3 (Homo sapiens (Human), UniProt P52333)", "valueKind": "IC50", "unitSpec": "nM", "dataValue": 2.8}
{"molecule": "C=CC(=O)Nc1ccc(F)c(Oc2nc(Nc3ccc(N(C)C)cc3)nn3cccc23)c1 [Example 12]", "targetSystem": "Recombinant purified human JAK3 (Homo sapiens (Human), UniProt P52333)", "valueKind": "IC50", "unitSpec": "nM", "dataValue": 0.7}

[1] C=CC(=O)Nc1ccc(F)c(Oc2nc(Nc3cccnc3)nn3cccc23)c1 [Example 15]
[2] C=CC(=O)Nc1ccc(F)c(Oc2nc(Nc3cnn(CC(F)(F)F)c3)nn3cccc23)c1 [Example 38]
[3] C=CC(=O)Nc1ccc(F)c(Oc2nc(Nc3cnn(CCN4CCOCC4)c3)nn3cccc23)c1 [Example 35]
Rank the items in ascending order with respect to IC50. A ranking is expressed here by listing the labels in the requested order.
3, 2, 1
(3: 0.7 nM, 2: 1.8 nM, 1: 15.5 nM)

[a] C=CC(=O)Nc1cccc(Oc2nc(Nc3cnn(C)c3)nn3cccc23)c1 [Example 3]
[b] C=CC(=O)Nc1ccc(F)c(Oc2nc(Nc3cnn(C4CCNCC4)c3)nn3cccc23)c1 [Example 37]
Would you let me know which has the greater IC50 value, a or b ? Please reply using the label of the selected record.
b
(b: 11.5 nM, a: 0.6 nM)

[A] C=CC(=O)Nc1ccc(F)c(Oc2nc(Nc3cnn(C4CC4)c3)nn3cccc23)c1 [Example 1]
[B] C=CC(=O)Nc1ccc(F)c(Oc2nc(Nc3cnn(C)c3)nn3cccc23)c1 [Example 27]
Field: lower recorded IC50 (choose A or B ) Please reply using the label of the selected record.
B

[a] C=CC(=O)Nc1ccc(F)c(Oc2nc(Nc3cnn(C(C)C)c3)nn3cccc23)c1 [Example 36]
[b] C=CC(=O)Nc1ccc(Cl)c(Oc2nc(Nc3cnn(CC)c3)nn3cccc23)c1 [Example 46]
[c] C=CC(=O)Nc1ccc(F)c(Oc2nc(Nc3ccc(OC)cc3)nn3cccc23)c1 [Example 28]
[d] C=CC(=O)Nc1ccc(F)c(Oc2nc(Nc3ccn(C)c3)nn3cccc23)c1 [Example 9]
[e] C=CC(=O)Nc1cccc(Oc2nc(Nc3ccc(N4CCOCC4)cc3)nn3cccc23)c1 [Example 22]
Ordering criterion: IC50; begin with the maximum. A ranking is expressed here by listing the labels in the requested order.
b, d, c, e, a

The reported measurements were obtained from patent US11084823B2.
